Form field: IC50 (one value per entry).
- SYSTEM UNDER TEST: UniProt P49959
- Sequence (P49959 1-708): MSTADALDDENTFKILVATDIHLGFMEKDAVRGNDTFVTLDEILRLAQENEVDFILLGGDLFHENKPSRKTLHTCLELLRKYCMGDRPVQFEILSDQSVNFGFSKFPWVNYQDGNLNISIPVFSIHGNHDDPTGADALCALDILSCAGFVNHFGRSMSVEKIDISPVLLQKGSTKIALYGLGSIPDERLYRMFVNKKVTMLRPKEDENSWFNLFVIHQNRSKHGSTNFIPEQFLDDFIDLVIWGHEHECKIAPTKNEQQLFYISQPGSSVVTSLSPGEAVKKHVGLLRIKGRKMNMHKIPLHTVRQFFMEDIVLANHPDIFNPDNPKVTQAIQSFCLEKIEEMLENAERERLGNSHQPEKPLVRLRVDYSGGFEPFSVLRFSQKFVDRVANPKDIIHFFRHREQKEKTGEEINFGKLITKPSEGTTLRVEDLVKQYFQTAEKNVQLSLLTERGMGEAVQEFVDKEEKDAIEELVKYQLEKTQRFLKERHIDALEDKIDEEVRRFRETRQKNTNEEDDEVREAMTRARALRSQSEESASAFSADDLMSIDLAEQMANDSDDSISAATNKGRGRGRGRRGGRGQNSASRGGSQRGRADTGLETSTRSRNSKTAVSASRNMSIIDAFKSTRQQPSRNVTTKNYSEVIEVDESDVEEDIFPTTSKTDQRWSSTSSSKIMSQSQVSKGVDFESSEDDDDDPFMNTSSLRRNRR
ASSAY READOUT: IC50

| MOLECULE | ASSAY READOUT | OBS VALUE |
| --- | --- | --- |
| N#C/C(=C\c1ccc2cn[nH]c2c1)C(=O)Nc1nc(-c2ccccc2)cs1 | IC50 | 2 to 10 µM |
| N#C/C(=C\c1ccc(O)c(O)c1)C(=O)Nc1nc(-c2ccccc2)c(-c2ccccc2)s1 | IC50 | < 2 µM |
| Cc1ccc(-c2csc(NC(=O)/C(C#N)=C/c3cc(Cl)c(O)c(Cl)c3)n2)cc1 | IC50 | < 2 µM |
| Cc1cccnc1-c1csc(NC(=O)/C(C#N)=C/c2ccc(O)c(O)c2)n1 | IC50 | < 2 µM |
| N#C/C(=C\c1ccc(O)c2ccccc12)C(=O)Nc1nc(-c2ccccc2)cs1 | IC50 | 2 to 10 µM |
| N#C/C(=C\c1cc(O)c(O)c(C#N)c1)C(=O)Nc1nc(-c2ccccc2)cs1 | IC50 | < 2 µM |
| N#C/C(=C\c1cc(Cl)c(O)c(Cl)c1)C(=O)Nc1nc(-c2ncccc2F)cs1 | IC50 | < 2 µM |
| N#C/C(=C\c1cc(Cl)c(O)c(Cl)c1)C(=O)Nc1nc(Cc2ccccc2)cs1 | IC50 | 10 to 90 µM |
| N#C/C(=C\c1ccc2[nH]c(=O)[nH]c2c1)C(=O)Nc1nc(-c2ccccc2)cs1 | IC50 | 10 to 90 µM |
| CC(C)(C)c1csc(NC(=O)/C(C#N)=C/c2ccc(O)c(O)c2)n1 | IC50 | < 2 µM |
| N#C/C(=C\c1ccc(O)c(O)c1)C(=O)Nc1nc(-c2ccccc2)c(Br)s1 | IC50 | < 2 µM |
| CC(C)(C)c1ccc(-c2csc(NC(=O)/C(C#N)=C/c3cc(Cl)c(O)c(Cl)c3)n2)cc1 | IC50 | 2 to 10 µM |
| N#C/C(=C\c1ccc(O)c(O)c1)C(=O)Nc1nc(-c2ccncc2)cs1 | IC50 | < 2 µM |
| Cc1ccc(-c2csc(NC(=O)/C(C#N)=C/c3ccc(O)c(O)c3)n2)s1 | IC50 | < 2 µM |
| N#C/C(=C\c1ccc(O)c(O)c1)C(=O)Nc1nc(-c2cc(F)cc(F)c2)cs1 | IC50 | < 2 µM |
| N#C/C(=C\c1ccc(O)c(C(N)=O)c1)C(=O)Nc1nc(-c2ccccc2)cs1 | IC50 | 10 to 90 µM |
| N#C/C(=C\c1ccc(O)c(O)c1)C(=O)Nc1nc(-c2ccc(Br)s2)cs1 | IC50 | < 2 µM |
| N#C/C(=C\c1ccc(O)c(O)c1)C(=O)Nc1nc(-c2ccc(C(F)(F)F)cn2)cs1 | IC50 | < 2 µM |
| N#C/C(=C\c1ccc(C(=O)O)c(O)c1)C(=O)Nc1nc(-c2ccccc2)cs1 | IC50 | 2 to 10 µM |
| N#C/C(=C\c1ccc(O)c(O)c1)C(=O)Nc1nc(-c2cccc(OC(F)(F)F)c2)cs1 | IC50 | 2 to 10 µM |
| N#C/C(=C\c1ccc(O)c(O)c1)C(=O)Nc1nc(C(=O)c2ccccc2)cs1 | IC50 | < 2 µM |
| N#CC(C(=O)Nc1nc(-c2ccccc2)cs1)=C(c1ccccc1)c1ccc(O)c(O)c1 (mixture of isomers) | IC50 | < 2 µM |
| N#C/C(=C\c1ccc(O)c(O)c1)C(=O)Nc1nc(-c2ccccc2Br)cs1 | IC50 | < 2 µM |
| N#C/C(=C\c1ccc(O)c(O)c1)C(=O)Nc1nc(-c2ccccn2)c(-c2cnccn2)s1 | IC50 | < 2 µM |
| CN(C)C(=O)c1ccc(-c2csc(NC(=O)/C(C#N)=C/c3ccc(O)c(O)c3)n2)cc1 | IC50 | < 2 µM |
| N#C/C(=C\c1ccc(O)c(O)c1)C(=O)Nc1nc(-c2cccc(Br)c2)cs1 | IC50 | < 2 µM |

---

The reader will find pIC50 measurements below, all made with MRE11 (Homo sapiens).
pIC50: −log10 of the molar value.

| CHEMICAL STRING | SYSTEM UNDER TEST | pIC50 |
| --- | --- | --- |
| N#C/C(=C\c1ccc(O)c(O)c1)C(=O)Nc1ncc(-c2cnccn2)s1 | MRE11 (Homo sapiens) | 4.05 to 5.00 |
| N#C/C(=C\c1ccc(O)c(O)c1)C(=O)Nc1nc(-c2cccnn2)cs1 | MRE11 (Homo sapiens) | > 5.70 |
| N#C/C(=C\c1cccc(C(F)(F)F)c1)C(=O)Nc1nc(-c2ccccc2)cs1 | MRE11 (Homo sapiens) | 5.00 to 5.70 |
| Cc1sc(NC(=O)/C(C#N)=C/c2ccc(O)c(O)c2)nc1-c1ccccc1 | MRE11 (Homo sapiens) | > 5.70 |
| N#C/C(=C\c1cc(Br)c(O)c(Br)c1)C(=O)Nc1nc(-c2ncccc2F)cs1 | MRE11 (Homo sapiens) | > 5.70 |
| N#C/C(=C\c1ccc(O)c(-c2ccccc2)c1)C(=O)Nc1nc(-c2ccccc2)cs1 | MRE11 (Homo sapiens) | 4.05 to 5.00 |
| N#C/C(=C\c1ccc(O)c(O)c1)C(=O)Nc1nc2c(s1)CCCC2 | MRE11 (Homo sapiens) | > 5.70 |
